log10 of TGI values for the molecules below.
System: A498 renal
Test: NCI tumour cell line growth inhibition, 48 h
All values: base-10 log of TGI in µM.

Consider the worked cases shown below.
• CC(=O)[O-].CC(=O)[O-].O=C(N/N=C/c1cc(Cl)cc(Cl)c1[OH2+])c1ccncc1.[Mn+2] = 1.61
• COc1ccc2c(c1)C(=Nc1ccc(F)c(Cl)c1)c1c-2c(Nc2ccc(F)c(Cl)c2)nc2ccccc12 = 1.94
• CN1CCN(CCCNC(=O)c2c3c(n4ccccc24)C(=O)c2ncccc2C3=O)CC1 = 1.40
• CN1CCC2(CC1)N=C(SCC(=O)Nc1cnc3ccccc3c1)C(c1ccc(Br)cc1)=N2 = 1.17

Query :: # lookup: log10 of TGI of O=Cc1cn(CCCCCCCCn2cc(C=O)c3ccccc32)c2ccccc12
Result :: 0.51

Query :: Now the molecule CSc1c(C#N)c(=O)n(N)c2c1c(C)nn2-c1ccccc1
Result :: 1.82

Query :: What do you get for Cc1ccccc1NC(=O)Cc1nc2ccccc2s1 ?
Result :: 1.55

Query :: Proceed to Cn1ncc(C#N)c1-c1ccc2c(c1)CN([C@H](CN)Cc1cccc(F)c1)C2=O
Result :: 0.14
